Each record here notes measured IC50.
system: BaF3; experiment: Antiproliferative activity against mouse BaF3 cells stably expressing KIF5B-RET-V804M mutant incubated for 72 hrs by CCK-8 assay; assay type: functional, cell-based; conditions: BaF3, 72 h
Use nM as the unit, but write only the number.

COMPOUND	OBSERVABLE	VAL
COc1ccc(CN2C3CC2CN(c2ccc(-c4cc(-c5cnn(C6CCN(CCCCCC#Cc7cccc8c7CN(C7CCC(=O)NC7=O)C8=O)CC6)c5)cn5ncc(C#N)c45)cn2)C3)cn1 (configuration not stated)	IC50	40

Could you now consider this next compound?
INPUT: Reported IC50, compound COc1ccc(CN2C3CC2CN(c2ccc(-c4cc(-c5cnn(C6CCN(CCCCCC#Cc7cccc8c7CN(C7CCC(=O)N(C)C7=O)C8=O)CC6)c5)cn5ncc(C#N)c45)cn2)C3)cn1 (configuration not stated) : ____
OUTPUT: 70

###

test system: BaF3; assay: PROTAC activity at CRBN/KIF5B-RET (unknown origin) expressed in mouse BaF3 cells assessed as induction of RET degradation at 100 nM measured after 6 hrs by Western blot analysis relative to control; type: cell-based
Decision: Activity compared against 40%; not below it gives Y, below it gives N.

Observe how each entry below is paired with its result.
COMPOUND	ASSIGNED_CATEGORY
COc1ccc(CN2C3CC2CN(c2ccc(-c4cc(-c5cnn(CCC#Cc6cccc7c6CN(C6CCC(=O)NC6=O)C7=O)c5)cn5ncc(C#N)c45)cn2)C3)cn1 (configuration not stated)	N
COc1ccc(CN2C3CC2CN(c2ccc(-c4cc(-c5cnn(C6CCN(CCCCCC#Cc7cccc8c7CN(C7CCC(=O)NC7=O)C8=O)CC6)c5)cn5ncc(C#N)c45)cn2)C3)cn1 (configuration not stated)	Y
COc1ccc(CN2C3CC2CN(c2ccc(-c4cc(-c5cnn(CCCCCCCCC#Cc6cccc7c6CN(C6CCC(=O)NC6=O)C7=O)c5)cn5ncc(C#N)c45)cn2)C3)cn1 (configuration not stated)	Y
COc1ccc(CN2C3CC2CN(c2ccc(-c4cc(-c5cnn(CCCCC#Cc6cccc7c6CN(C6CCC(=O)NC6=O)C7=O)c5)cn5ncc(C#N)c45)cn2)C3)cn1 (configuration not stated)	N
COc1ccc(CN2C3CC2CN(c2ccc(-c4cc(-c5cnn(C6CCN(CC(=O)N7CCN(c8ccc9c(c8)C(=O)N(C8CCC(=O)NC8=O)C9=O)CC7)CC6)c5)cn5ncc(C#N)c45)cn2)C3)cn1 (configuration not stated)	N

Could you now consider this next compound?
INPUT: Exam item: decide whether the reported Activity for COc1ccc(CN2C3CC2CN(c2ccc(-c4cc(-c5cnn(C6CCN(C(=O)CN7CCN(c8ccc9c(c8)C(=O)N(C8CCC(=O)NC8=O)C9=O)CC7)CC6)c5)cn5ncc(C#N)c45)cn2)C3)cn1 (configuration not stated) is at least 40%.
OUTPUT: Y

Cited source: ChEMBL document CHEMBL6087474
